Tested on: Saccharomyces cerevisiae;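 note: PSI is a weighted mean of sequencing reads over stability bins, variants kept only with over 10 reads, mCherry proximal and sfGFP distal, peptide attached via GGGS linker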
method_summary: protein stability index of tFT-peptide fusion (C-terminal peptide) (PSI (0-1 scale)); higher = more stable (slower turnover)
conditions_used: genetic background: wild type; temperature: 37 C
measurement_label: protein stability index

Illustrative cases are given below, each with its answer.
- construct_sequence: "PPAPTPFPPSPR"
  protein stability index: 0.728
- construct_sequence: "QNVKRIVRHMLT"
  protein stability index: 0.41
- construct_sequence: "LYLCLVSPVVVL"
  protein stability index: 0.257
- construct_sequence: "LWFRGGYLFFVV"
  protein stability index: 0.332
- construct_sequence: "LYIQWVSRWSVQ"
  protein stability index: 0.582
- construct_sequence: "TFRVLAFFCRVV"
  protein stability index: 0.39
- construct_sequence: "RFCLPLRLPVTT"
  protein stability index: 0.589
- construct_sequence: "FGFWGVVSCCNA"
  protein stability index: 0.583

Enquiry: Look at this sequence and give its reported protein stability index. `FFDLSLYSLCLC`
Return: 0.465

Data credit: the supplement of paper PMC10724198
